Biological target: Tyrosine-protein kinase TXK (Homo sapiens) (UniProt P42681);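 further: each listed value is a mean percent inhibition of TXK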
Sequence (whole entry): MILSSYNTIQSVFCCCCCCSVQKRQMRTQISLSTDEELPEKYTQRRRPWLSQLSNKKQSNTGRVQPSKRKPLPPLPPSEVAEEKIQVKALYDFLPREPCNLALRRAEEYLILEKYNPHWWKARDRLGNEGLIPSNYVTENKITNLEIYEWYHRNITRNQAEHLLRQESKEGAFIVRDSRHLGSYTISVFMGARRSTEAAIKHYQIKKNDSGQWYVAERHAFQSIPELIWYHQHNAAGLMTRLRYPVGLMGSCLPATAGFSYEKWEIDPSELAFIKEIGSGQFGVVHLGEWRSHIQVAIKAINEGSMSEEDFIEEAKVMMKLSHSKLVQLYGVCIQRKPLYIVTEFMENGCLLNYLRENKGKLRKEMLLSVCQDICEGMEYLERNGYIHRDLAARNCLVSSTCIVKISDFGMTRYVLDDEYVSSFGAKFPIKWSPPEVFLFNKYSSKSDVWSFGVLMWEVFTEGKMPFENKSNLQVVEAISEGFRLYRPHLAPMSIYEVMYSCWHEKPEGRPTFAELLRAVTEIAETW
Details: at 0.1 µM
RESULT TYPE: inhibition

Any idea what inhibition came out for CC(C)=Cc1cccc2c1/C(=N/Nc1ccc(S(N)(=O)=O)cc1)C(=O)N2 on Tyrosine-protein kinase TXK (Homo sapiens) (UniProt P42681)?
3.64%

Can you check Nc1nc(-c2ccc3c(c2)C(=Cc2cc(Br)c(O)c(Br)c2)C(=O)N3)cs1 next?
-0.27%

Can you check CCc1cccc(NC(=O)Nc2ccc(Oc3ccc4nc(NC(=O)OC)[nH]c4c3)cc2)c1 next?
2.03%

Can you check COc1ccccc1Nc1ncc(-c2ccccc2)o1 next?
0.91%

Can you check O=C1Nc2ccc(C(=O)c3ccco3)cc2C1=Cc1cc(Cl)c(O)c(Cl)c1 next?
3.45%

Can you check CS(=O)(=O)CCNCc1ccc(-c2ccc3ncnc(Nc4ccc(OCc5ccccc5)c(Cl)c4)c3c2)o1 next?
1.26%

Can you check CCCN1CCC(Oc2cc(Nc3nc(Nc4cccc(F)c4C(N)=O)c4cc[nH]c4n3)c(OC)cc2Cl)CC1 next?
2.84%

Can you check COc1cccc(-n2ncc3c(N/N=C/c4cccc(F)c4)ncnc32)c1 next?
-0.86%

Can you check O=C1NC(=O)C(c2ccccc2Cl)=C1Nc1cccc(O)c1 next?
3.39%

Can you check NS(=O)(=O)c1ccc(N/N=C2\C(=O)Nc3ccc(C(=O)NCCc4c[nH]cn4)cc32)cc1 next?
3.49%

Can you check Cc1nn(C)c2cc(N(C)c3ccnc(Nc4cccc(S(N)(=O)=O)c4)n3)ccc12 next?
53.5%

Can you check O=C(Nc1n[nH]c2nc(-c3ccco3)c(Br)cc12)C1CC1 next?
2.71%

Can you check COc1cc2ncn(-c3cc(O[C@H](C)c4ccccc4Cl)c(C(N)=O)s3)c2cc1OC next?
5.04%

Can you check COc1cc2ncn(-c3cc(OCc4ccccc4Cl)c(C(N)=O)s3)c2cc1OC next?
2.99%

Can you check COc1cc(C=NNc2ncnc3c2cnn3-c2ccccc2)ccc1O next?
3.66%

Can you check CC1=C(C(=O)Nc2ccc3[nH]ncc3c2)C(c2ccc(Cl)c(Cl)c2)CC(=O)N1 (stereo not given) next?
1.64%

Can you check Nc1ncnc2occ(-c3ccc(NC(=O)Nc4cc(C(F)(F)F)cc(C(F)(F)F)c4)cc3)c12 next?
1.73%

Can you check CCn1c(-c2nonc2N)nc2cncc(C(=O)N3CC[C@H](N)C3)c21 next?
3.09%

Can you check Cc1ccc(C(=O)NC2CCCCC2)cc1-c1ccc(C(=O)NCC2CC2)cc1 next?
4.64%

Can you check COc1cc2ncn(-c3cc(OCc4ccccc4C(F)(F)F)c(C(N)=O)s3)c2cc1OC next?
-5.47%

// provenance: ChEMBL document CHEMBL1961873
